Tested on: KM-20L2
Measurement protocol: NCI tumour cell line growth inhibition, 48 h
Active and inactive are the calls of the source. Cut-off read from the data, not from the text of the source: active = GI50 up to about 1.1 µM and inactive = higher.
Property: GI50

Some molecules with recorded GI50:
Molecule	Property	Recorded result
C=CCN1C(=O)C/C(=C2/CCC(=O)N2CC=C)C1=O	GI50	> 100 µM (inactive)
N#CC(C(=O)/C(=N\Nc1nc(S)nn1N)C(C#N)c1ccc(Cl)cc1)c1ccc(Cl)cc1 (stereo unspecified)	GI50	> 100 µM (inactive)
CCOC(=O)C1=C(OC(OCC)C(CC)[Se]c2ccccc2)CCC1 (stereo unspecified)	GI50	29.8 µM (inactive)
COc1ccc2c3c([nH]c2c1[N+](=O)[O-])C(C)=NCC3	GI50	69.3 µM (inactive)
O=C(O)CCc1nn2c(nc1=O)sc1ccc3ccccc3c12	GI50	> 100 µM (inactive)
O=C(NN1C(=O)C(Cl)C1c1ccc([N+](=O)[O-])cc1)c1ccccc1O (stereo unspecified)	GI50	> 100 µM (inactive)
CCCCCCCCCCCC(=O)OCC1OC(n2cc(F)c(=O)[nH]c2=O)C(NC(=O)OCc2ccccc2)C(O)C1O (stereo unspecified)	GI50	21.4 µM (inactive)
O=C1C(=O)N(c2ccc(Cl)cc2)C(=O)C(=O)C1c1nc2ccccc2s1	GI50	> 100 µM (inactive)
CC1=CC(=O)NP(=O)(Oc2ccc(Cl)cc2)N1 (stereo unspecified)	GI50	> 100 µM (inactive)
N#CC1CC(c2ccccc2)Nc2cc(Cl)ccc2N1 (stereo unspecified)	GI50	43.7 µM (inactive)

From here, focus on the item given below.
Sure, the documented GI50 for C/C(=N\NC(=S)NC(CCC(=O)O)C(=O)O)c1cnccn1 (stereo unspecified) is > 100 µM (inactive)
